Value source: patent US10633338B2

# tested_target: androgen receptor (AR) (Homo sapiens, UniProt P10275, T878A)
# Construct: stably transfected eGFP-expressing LNCaP human prostate cancer cells (LN-ARR2PB-eGFP) containing an androgen responsive probasin-derived promoter; endogenous in cells; host or cells: LNCaP (LN-ARR2PB-eGFP)
# Sequence (P10275 whole entry T878A): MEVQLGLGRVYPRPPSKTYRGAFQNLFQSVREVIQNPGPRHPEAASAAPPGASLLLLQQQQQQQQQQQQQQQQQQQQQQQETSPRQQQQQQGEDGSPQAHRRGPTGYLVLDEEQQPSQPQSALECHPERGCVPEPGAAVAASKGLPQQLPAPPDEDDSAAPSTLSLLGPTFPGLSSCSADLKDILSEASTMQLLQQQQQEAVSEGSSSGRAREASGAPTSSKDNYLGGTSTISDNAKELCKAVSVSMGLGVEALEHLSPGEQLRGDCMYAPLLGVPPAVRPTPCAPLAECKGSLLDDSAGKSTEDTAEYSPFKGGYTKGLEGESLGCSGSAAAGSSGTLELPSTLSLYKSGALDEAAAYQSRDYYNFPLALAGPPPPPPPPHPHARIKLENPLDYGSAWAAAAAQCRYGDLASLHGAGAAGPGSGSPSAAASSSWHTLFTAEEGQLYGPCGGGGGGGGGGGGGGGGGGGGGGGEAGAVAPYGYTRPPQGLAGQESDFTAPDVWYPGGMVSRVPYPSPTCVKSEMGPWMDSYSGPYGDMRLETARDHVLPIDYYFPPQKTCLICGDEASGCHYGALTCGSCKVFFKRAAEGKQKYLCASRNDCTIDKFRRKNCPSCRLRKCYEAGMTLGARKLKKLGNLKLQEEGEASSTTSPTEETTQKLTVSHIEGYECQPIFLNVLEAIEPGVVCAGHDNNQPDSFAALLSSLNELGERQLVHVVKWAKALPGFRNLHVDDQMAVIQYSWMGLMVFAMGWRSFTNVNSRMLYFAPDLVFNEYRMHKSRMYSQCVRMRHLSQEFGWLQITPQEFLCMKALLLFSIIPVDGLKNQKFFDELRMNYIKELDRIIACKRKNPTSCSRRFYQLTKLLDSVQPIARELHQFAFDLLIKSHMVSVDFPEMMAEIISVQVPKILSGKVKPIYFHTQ
# measurement_notes: eGFP cellular AR transcription assay
# Assay type: cell-based
# assay_context: LN-ARR2PBeGFP LNCaP cells, 0.1 nM R1881, 3 days incubation; read-out: eGFP IC50
pIC50: −log10 of the molar value.
Quick rule: pIC50 of at least 7 means Met, below that means Not met.

# compound, class_label
records = [
    ("CNC(=O)c1cccc2nc(-c3c[nH]c4cc(F)c(F)cc34)ccc12", "Not met"),
    ("CNC(=O)c1cccc2nc(-c3c[nH]c4c(F)cc(F)cc34)ccc12", "Met"),
    ("Cc1c(F)ccc2c(-c3ccc4cccc(Br)c4n3)c[nH]c12", "Not met"),
    ("Cn1cc(C2Nc3ccccc3C2(C)C)c2ccccc21 (centres unmarked)", "Not met"),
    ("c1ccc2c(c1)N=C(c1c[nH]c3cnccc13)C21CCCCC1", "Not met"),
]

* * *

# tested_target: androgen receptor (AR) (Homo sapiens, UniProt P10275, T878A)
# Construct: stably transfected eGFP-expressing LNCaP human prostate cancer cells (LN-ARR2PB-eGFP) containing an androgen responsive probasin-derived promoter; endogenous in cells; host or cells: LNCaP (LN-ARR2PB-eGFP)
# measurement_notes: eGFP cellular AR transcription assay
# Type: cell-based
# assay_context: LN-ARR2PB-eGFP LNCaP cells, 0.1 nM R1881, 3 days, 0-100 μM compound; read-out: IC50 (eGFP)
Lab note: cut-off is 0.7 µM. Strictly less in IC50 is 1.0. Exactly 0.7 µM or more is 0.0.

# compound, class_label
records = [
    ("c1ccc2c(c1)NC(c1c[nH]c3ccccc13)C21CCCCC1 (centres unmarked) [13 534]", 0.0),
    ("Brc1cccc2c(-c3ccc4ccccc4n3)c[nH]c12 [13 582]", 1.0),
    ("Brc1ccc(-c2c[nH]c3ncccc23)cc1 [13 716]", 1.0),
    ("CC1(C)c2ccccc2NC1c1c[nH]c2ncccc12 (centres unmarked) [13 556]", 0.0),
    ("c1ccc2ncc(-c3n[nH]c4ccccc34)cc2c1 [13 684]", 0.0),
    ("Cc1cccc2cnn(-c3ccc4ccccc4n3)c12 [13 575]", 0.0),
    ("CC1(C)c2ccccc2NC1c1c[nH]c2ccc(N)cc12 (centres unmarked) [13 538]", 0.0),
    ("c1ccc(-c2cccc(-c3c[nH]c4ncccc34)c2)cc1 [13 734]", 0.0),
    ("FC(F)(F)c1ccc2c(-c3ccc4ccccc4n3)c[nH]c2c1 [13 580]", 0.0),
    ("Cc1cccc2c(-c3cnc4ccccc4c3)c[nH]c12 [13 654]", 0.0),
    ("O=[N+]([O-])c1cccc2c(-c3ccc4ccccc4c3)c[nH]c12 [13 702]", 1.0),
    ("Cc1cccc2c(-c3ccc4cccnc4c3)c[nH]c12 [13 744]", 0.0),
    ("c1ccc(COc2ccc3c(C4Nc5ccccc5C45CCCCC5)c[nH]c3c2)cc1 (centres unmarked) [13 550]", 0.0),
    ("FC(F)(F)c1ccc(-c2c[nH]c3ccccc23)nc1 [13 741]", 1.0),
    ("c1cncc(-c2c[nH]c3cnccc23)c1 [13 581]", 0.0),
    ("Fc1ccc2c(-c3ccc4ccccc4n3)c[nH]c2c1 [13 576]", 1.0),
    ("COc1cccc2c(-c3cc(C)c4ccccc4n3)c[nH]c12 [13 554]", 1.0),
    ("CC1(C)c2ccccc2NC1c1c[nH]c2cc(OCc3ccccc3)ccc12 (centres unmarked) [13 544]", 0.0),
    ("Cc1cccc2c(-c3cccnc3)c[nH]c12 [13 655]", 0.0),
    ("Cc1cccc2c(-c3nc4ccccc4s3)c[nH]c12 [13 760]", 1.0),
    ("CC1(C)c2ccc(Br)cc2NC1c1c[nH]c2c(OCc3ccccc3)cccc12 (centres unmarked) [13 543]", 0.0),
    ("c1ccc(-c2c[nH]c3ncccc23)cc1 [13 739]", 1.0),
    ("Cc1ccc2[nH]cc(C3Nc4ccccc4C3(C)C)c2c1 (centres unmarked) [13 535]", 0.0),
    ("Cc1ccc2[nH]cc(C3Nc4ccccc4C34CCCCC4)c2c1 (centres unmarked) [13 548]", 0.0),
    ("FC(F)(F)c1ccccc1-c1c[nH]c2ccccc12 [13 745]", 0.0),
    ("CC1(C)c2cc(Br)ccc2NC1c1c[nH]c2cc(O)ccc12 (centres unmarked) [13 542]", 0.0),
    ("Cc1ccc2[nH]cc(-c3ccc4ccccc4n3)c2c1 [13 577]", 0.0),
    ("Cn1cc(-c2ccc3ccccc3n2)c2ccccc21 [13 571]", 0.0),
    ("Fc1cccc2c(-c3ccc4ccccc4n3)c[nH]c12 [13 569]", 0.0),
    ("Brc1cccc2c(-c3cnc4ccccc4c3)c[nH]c12 [13 653]", 0.0),
    ("c1ccc(-c2ccc(-c3c[nH]c4ncccc34)cc2)cc1 [13 715]", 0.0),
    ("c1ccc2cc(-c3c[nH]c4ncccc34)ccc2c1 [13 676]", 1.0),
    ("Cc1[nH]c2ccccc2c1-c1ccc2ccccc2n1 [13 570]", 0.0),
    ("COc1ccc2[nH]cc(C3Nc4ccccc4C3(C)C)c2c1 (centres unmarked) [13 536]", 0.0),
    ("c1ccc(-c2ccc(-c3c[nH]c4cccnc34)cc2)cc1 [13 735]", 0.0),
    ("Cc1cccc2c(-c3ccc4ocnc4c3)c[nH]c12 [13 759]", 1.0),
    ("CC1(C)c2ccccc2NC1c1c[nH]c2cnccc12 (centres unmarked) [13 561]", 0.0),
    ("CC1(C)C(c2c[nH]c3c(O)cccc23)=Nc2ccccc21 [13 541]", 1.0),
    ("Oc1cccc2c(C3Nc4ccccc4C34CCCCC4)c[nH]c12 (centres unmarked) [13 552]", 0.0),
    ("CCc1cccc2c(-c3ccc4ccccc4n3)c[nH]c12 [13 567]", 1.0),
    ("Brc1ccc2[nH]cc(-c3ccc4ccccc4n3)c2c1 [13 683]", 0.0),
    ("Brc1ccc(-c2c[nH]c3cccnc23)cc1 [13 737]", 1.0),
    ("c1ccc2cc(-c3c[nH]c4cccnc34)ccc2c1 [13 703]", 1.0),
]

* * *

# Test system: PSA
# measurement_notes: Prostate Surface Antigen (PSA) assay, PSA excreted into the media
# Format: cell-based, human
# assay_context: PSA excreted into media, same plates as eGFP assay, 3 days incubation

# structure, PSA IC50
records = [
    ("COc1ccc(Br)cc1-c1c[nH]c2ccccc12", "Inactive"),
    ("Cc1cccc2c(-c3ccc4cnccc4c3)c[nH]c12", "Inactive"),
    ("O=C(O)c1cccc2nc(-c3c[nH]c4c(F)cc(F)cc34)ccc12", "Inactive"),
    ("Cc1cc(F)cc2cc[nH]c12", "Inactive"),
    ("Cc1cccc2c(-c3ccc4c(Br)cccc4n3)c[nH]c12", "Inactive"),
]

* * *

# tested_target: androgen receptor (AR) (Homo sapiens, UniProt P10275, T878A)
# Construct: stably transfected eGFP-expressing LNCaP human prostate cancer cells (LN-ARR2PB-eGFP) containing an androgen responsive probasin-derived promoter; endogenous in cells; host or cells: LNCaP (LN-ARR2PB-eGFP)
# measurement_notes: eGFP cellular AR transcription assay
# Format: cell-based
# assay_context: LN-ARR2PBeGFP LNCaP cells, 0.1 nM R1881, 3 days incubation; read-out: eGFP IC50
Lab note: cut-off is 1000 nM. Strictly less in IC50 is YES. Exactly 1000 nM or more is NO.

# molecule, class_label
data = [
    ("Cc1c(F)ccc2c(-c3ccc4cccc(Cl)c4n3)c[nH]c12", "YES"),
    ("CNC(=O)c1cccc2nc(-c3c[nH]c4ccccc34)ccc12", "YES"),
    ("FC(F)(F)c1ccccc1/N=N/c1c[nH]c2ccccc12", "YES"),
    ("O=C(Nc1nc2ccc(Br)cc2s1)c1ccccc1O", "NO"),
    ("Fc1cc2[nH]cc(-c3ccc4cccc(F)c4n3)c2cc1F", "YES"),
    ("O=[N+]([O-])c1cccc2c(-c3ccc(Br)cc3)c[nH]c12", "YES"),
    ("Fc1ccc2[nH]cc(-c3cc4ccccc4[nH]3)c2c1", "NO"),
    ("Cc1[nH]c2ccccc2c1SCc1ccccc1F [Compound 13224]", "NO"),
    ("CC1(C)c2ccccc2NC1c1c[nH]c2c(CO)cccc12 (centres unmarked)", "NO"),
    ("Cc1c(F)ccc2c(-c3ccc4ccc(F)cc4n3)c[nH]c12", "YES"),
    ("Brc1ccc2cc(CCc3cc4ccc(Br)cc4[nH]3)[nH]c2c1", "NO"),
    ("O=C(Nc1nc2cc(Br)ccc2s1)c1cc(Br)ccc1O", "NO"),
    ("O=Nn1cc(-c2cc3ccccc3n2N=O)c2ccccc21", "NO"),
    ("CC1(C)c2ccccc2NC1c1c[nH]c2ccc(Br)cc12 (centres unmarked)", "NO"),
    ("CN1c2ccccc2C[C@@H]1c1c[nH]c2ccccc12", "NO"),
    ("Cc1cccn2cc(-c3c[nH]c4ccccc34)nc12", "NO"),
    ("Cc1cccc2c(-c3cccnc3)c[nH]c12", "NO"),
    ("FC(F)(F)c1ccc(-c2c[nH]c3ccccc23)cc1", "YES"),
    ("CNC(=O)c1cccc2nc(-c3c[nH]c4c(C)c(F)c(F)cc34)ccc12", "YES"),
    ("Cc1ccc2c(-c3ccc4ccccc4n3)c[nH]c2c1", "NO"),
]
